Every entry's value here was drawn from patent US11371056B2.

Test system: Pseudomonas fluorescens HPPD polypeptide (wild-type and mutants)
Method Summary: Coupled HPPD activity assay: turnover and residual turnover in crude HPPD polypeptide extracts with and without Cmpd. 1
Type: biochemical
Test Parameters: 100 μM Cmpd. 1, normalised to turnover without inhibitor
A collection of molecules and their measured Residual turnover [%]
Return type: number; implicit unit %.

Molecule: SEQ ID NO:32 (protein, mutant HPPD polypeptide) MADLYENPMGLMGFEFIEFASPTPGTLEPIFEIMGFTKVATHRSKNVHLYRQGEINLILNNEPNSIASYFAAEHGPSVCGMAFRVKDSQKAYNRALELGAQPIHIDTGPMELNLPAIKGIGGAPLYLIDRFGEGSSIYDIDFVYLEGVERNPVGAGLKVIDHLTHNVYRGRMVYWANFYEKLFNFREARYFDIKGEYTGLTSKAMSAPDGMIRIPLNEESSKGAGQIEEFLMQFNGEGIQHVAFLTDDLVKTWDALKKIGMRFMTAPGDEYYEMLEGRLPDHGEPVDQLQARGILLDGSSVEGDKRLLLQIFSEQLMGPVFFEFIQRKGDDGFGPHSFKVLFESMERDQVRRGVLTAD
Result Type: Residual turnover [%]
Unit String: %
Test Result: 57

Now look at this one.
# input Complete the entry with Residual turnover [%] for SEQ ID NO:63 (protein, mutant HPPD polypeptide) MADLYENPMGLMGFEFIEFASPTPGTLEPIFEIMGFTKVATHRSKNVHLYRQGEINLILNNEPNSIASYFAAEHGPSVCGMAFRVKDSQKAYNRALELGAQPIHIDTGPMELNLPAIKGIGGAPLYLIDRFGEGSSIYDIDFVYLEGVERNPVGAGLKVIDHLTHNVYRGRMVYWANFYEKLFNFREARYFDIKGEYTGLTSKAMSAPDGMIKIALNEESSKGAGQIEEFLMQFNGEGIQHVAFLTDDLVKTWDALKKIGMRFLTAPGDEYYEMLEGRLPDHGEPVDQLQARGILLDGSSVEGDKRLLLQIFSEKLMGPVFFEFIQRKGDDGFGPHSFKVLFEQMERDQVRRGVLTAD
# output 67
